Target: T1, human CD4 on cells (SKW3 cells; human PBMCs) (human, UniProt P01730 26-458)
T1 construct: whole, on cells; SKW3 CD4 knockout cells served as the negative cell line; also called hCD4
Test: FACS primary screen, non-clonal hybridoma supernatant, SKW3 vs SKW3 CD4 knockout cells, anti-human kappa FITC
Metric name: SKW3 WT vs KO anti-hKappa-FITC

Query block: State the recorded SKW3 WT vs KO anti-hKappa-FITC for this entry: 75110_07B16A (antibody, IgG1, V domains shown, Tested as non-clonal AlivaMab Mouse Kappa hybridoma supernatant: human variable domains and human kappa, mouse Fc) VH: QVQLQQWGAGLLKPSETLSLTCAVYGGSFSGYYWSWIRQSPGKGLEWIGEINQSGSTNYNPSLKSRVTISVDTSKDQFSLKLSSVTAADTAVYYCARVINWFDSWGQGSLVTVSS VL: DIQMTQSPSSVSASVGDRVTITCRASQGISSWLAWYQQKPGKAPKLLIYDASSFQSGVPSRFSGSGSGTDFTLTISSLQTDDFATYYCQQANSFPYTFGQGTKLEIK
Result block: 3 fold

Query block: State the recorded SKW3 WT vs KO anti-hKappa-FITC for this entry: 75110_12K21A (antibody, V domains shown, Tested as non-clonal AlivaMab Mouse Kappa hybridoma supernatant: human variable domains and human kappa, mouse Fc) VH: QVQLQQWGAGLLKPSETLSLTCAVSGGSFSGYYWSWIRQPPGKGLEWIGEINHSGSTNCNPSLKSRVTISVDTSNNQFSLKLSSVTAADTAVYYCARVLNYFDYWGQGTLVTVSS VL: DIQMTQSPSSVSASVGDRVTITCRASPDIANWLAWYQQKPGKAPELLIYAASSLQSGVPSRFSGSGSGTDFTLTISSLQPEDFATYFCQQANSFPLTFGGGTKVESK
Result block: 2.8 fold

Query block: State the recorded SKW3 WT vs KO anti-hKappa-FITC for this entry: 75110_13C13A (antibody, IgG1, V domains shown, Tested as non-clonal AlivaMab Mouse Kappa hybridoma supernatant: human variable domains and human kappa, mouse Fc) VH: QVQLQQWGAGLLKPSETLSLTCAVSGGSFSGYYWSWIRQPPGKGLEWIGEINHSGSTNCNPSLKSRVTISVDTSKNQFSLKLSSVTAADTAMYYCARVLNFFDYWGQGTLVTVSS VL: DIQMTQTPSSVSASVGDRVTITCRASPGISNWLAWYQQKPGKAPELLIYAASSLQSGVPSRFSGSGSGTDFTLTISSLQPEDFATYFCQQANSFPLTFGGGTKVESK
Result block: 3.1 fold

Query block: State the recorded SKW3 WT vs KO anti-hKappa-FITC for this entry: 75110_05K11A (antibody, IgG1, V domains shown, Tested as non-clonal AlivaMab Mouse Kappa hybridoma supernatant: human variable domains and human kappa, mouse Fc) VH: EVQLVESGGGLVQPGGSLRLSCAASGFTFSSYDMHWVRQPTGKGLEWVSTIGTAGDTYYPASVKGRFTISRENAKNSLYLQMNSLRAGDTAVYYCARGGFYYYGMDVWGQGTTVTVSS VL: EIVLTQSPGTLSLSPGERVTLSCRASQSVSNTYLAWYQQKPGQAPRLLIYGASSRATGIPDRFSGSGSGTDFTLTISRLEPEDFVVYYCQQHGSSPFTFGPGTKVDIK
Result block: 1.8 fold

Query block: State the recorded SKW3 WT vs KO anti-hKappa-FITC for this entry: 75110_04P06A (antibody, IgG1, V domains shown, Tested as non-clonal AlivaMab Mouse Kappa hybridoma supernatant: human variable domains and human kappa, mouse Fc) VH: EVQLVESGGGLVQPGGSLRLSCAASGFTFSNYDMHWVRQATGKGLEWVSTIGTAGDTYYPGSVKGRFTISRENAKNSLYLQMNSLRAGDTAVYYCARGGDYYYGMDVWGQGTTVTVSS VL: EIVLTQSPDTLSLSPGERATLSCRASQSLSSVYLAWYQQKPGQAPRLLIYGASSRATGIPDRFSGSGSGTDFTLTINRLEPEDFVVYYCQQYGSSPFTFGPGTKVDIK
Result block: 1.6 fold

Query block: State the recorded SKW3 WT vs KO anti-hKappa-FITC for this entry: 75110_01K10A (antibody, V domains shown, Tested as non-clonal AlivaMab Mouse Kappa hybridoma supernatant: human variable domains and human kappa, mouse Fc) VH: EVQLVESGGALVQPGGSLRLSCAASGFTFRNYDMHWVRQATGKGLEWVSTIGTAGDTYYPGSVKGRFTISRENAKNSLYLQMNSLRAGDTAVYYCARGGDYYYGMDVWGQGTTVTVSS VL: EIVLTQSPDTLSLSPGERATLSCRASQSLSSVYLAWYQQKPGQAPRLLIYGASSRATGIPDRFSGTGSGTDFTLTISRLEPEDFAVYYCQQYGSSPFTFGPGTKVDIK
Result block: 2.2 fold

Query block: State the recorded SKW3 WT vs KO anti-hKappa-FITC for this entry: 75110_01G11A (antibody, IgG1, V domains shown, Tested as non-clonal AlivaMab Mouse Kappa hybridoma supernatant: human variable domains and human kappa, mouse Fc) VH: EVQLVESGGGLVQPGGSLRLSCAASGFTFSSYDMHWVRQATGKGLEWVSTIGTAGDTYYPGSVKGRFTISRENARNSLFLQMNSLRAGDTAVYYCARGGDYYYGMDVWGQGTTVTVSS VL: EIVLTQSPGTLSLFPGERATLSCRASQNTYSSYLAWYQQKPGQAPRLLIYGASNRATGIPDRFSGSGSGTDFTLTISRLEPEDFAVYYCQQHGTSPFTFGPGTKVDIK
Result block: 2 fold

Query block: State the recorded SKW3 WT vs KO anti-hKappa-FITC for this entry: 75110_13P22A (antibody, IgG1, V domains shown, Tested as non-clonal AlivaMab Mouse Kappa hybridoma supernatant: human variable domains and human kappa, mouse Fc) VH: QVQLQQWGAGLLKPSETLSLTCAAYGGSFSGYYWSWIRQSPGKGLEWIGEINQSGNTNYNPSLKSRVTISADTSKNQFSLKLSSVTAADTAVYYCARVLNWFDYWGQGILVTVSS VL: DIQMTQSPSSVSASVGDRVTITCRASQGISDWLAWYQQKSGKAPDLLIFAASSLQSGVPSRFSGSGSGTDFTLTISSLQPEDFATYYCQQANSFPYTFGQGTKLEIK
Result block: 2.8 fold

Query block: State the recorded SKW3 WT vs KO anti-hKappa-FITC for this entry: 75110_06D16A (antibody, V domains shown, Tested as non-clonal AlivaMab Mouse Kappa hybridoma supernatant: human variable domains and human kappa, mouse Fc (detected with anti-mouse Fc)) VH: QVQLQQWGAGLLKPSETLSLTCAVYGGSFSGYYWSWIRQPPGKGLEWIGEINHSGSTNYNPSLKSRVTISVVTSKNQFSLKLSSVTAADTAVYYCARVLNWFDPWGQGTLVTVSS VL: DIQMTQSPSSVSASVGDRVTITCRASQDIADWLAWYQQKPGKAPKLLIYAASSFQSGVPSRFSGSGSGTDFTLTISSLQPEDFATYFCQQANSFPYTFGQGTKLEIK
Result block: 2.5 fold
